- ASSAY_OVERVIEW: antimalarial activity against Dd2 strain (AID 2302);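 also: 0% = DMSO untreated growth and 100% = chloroquine plus artemisinin killed control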
- EXPERIMENTAL_CONTEXT: P. falciparum Dd2 in RBCs, LDH growth readout, 72 h; at 2 µM; stronger effect = higher value
PROPERTY_MEASURED: growth inhibition (%)
Write the value in % as a bare number.

Tell me the measured growth inhibition of COc1c(CNCCCCCCNCc2cc(Cl)c3ccccc3c2OC)cc(Cl)c2ccccc12 , please. 45

Tell me the measured growth inhibition of COc1cccc2sc(Nc3nc(-c4ccccn4)cs3)nc12 , please. 76

Tell me the measured growth inhibition of COC(=O)c1cccc(CNCc2cccc(-c3ccc(-c4nc5c(C)cccc5[nH]4)s3)c2)c1 , please. 65

Tell me the measured growth inhibition of CN1CCN(c2ncnc3ccc(NC(=O)Nc4ccc(Cl)c(Cl)c4)cc23)CC1 , please. 89

Tell me the measured growth inhibition of O=C(c1ccc(Cl)cc1)C1CCCN(C2CCN(CCc3ccccc3)CC2)C1 (stereo not given) , please. 51

Tell me the measured growth inhibition of O=S(=O)(NCCN1CCCC1)c1ccc(-c2ccc(CNC3Cc4ccccc4C3)cc2)cc1F , please. 75

Tell me the measured growth inhibition of COc1ccc(NC(=O)[C@H](Cc2ccccc2)Nc2cc(C)nc(NCCc3ccccn3)n2)cc1 , please. 39

Tell me the measured growth inhibition of CC(C)CC1c2[nH]c3ccccc3c(=O)c2CN1C(=O)OC(C)(C)C (stereo not given) , please. 96

Tell me the measured growth inhibition of O=C(NC1CCN(c2ccnc3cc(Cl)ccc23)C1)c1ccc(F)cc1 (stereo not given) , please. 97

Tell me the measured growth inhibition of CN1CCCC1CCNc1ncc2c(-c3ccc(NC(=O)Nc4cc(C(F)(F)F)ccc4F)c(F)c3)nn(C)c2n1 (stereo not given) , please. 90

Tell me the measured growth inhibition of COC(=O)c1ccc(CCC(C)NCC(O)c2cccc(C(F)(F)F)c2)cc1 (stereo not given) , please. 99

Tell me the measured growth inhibition of CN1CCN(Cc2c(O)ccc3c(=O)c(Oc4ccc(C(C)(C)C)cc4)c(C(F)(F)F)oc23)CC1 , please. 88

Tell me the measured growth inhibition of c1ccc(-n2ncc(CNCc3ccc(-c4ccc(-c5nc6ccccc6[nH]5)s4)cc3)n2)cc1 , please. 46

Tell me the measured growth inhibition of COc1ccc2ncc(F)c(CCN3CC[C@@H](CNCc4nc5c(cc4C)SCC(=O)N5)C3)c2n1 , please. 42

Tell me the measured growth inhibition of O=C(Nc1cccc(OCCN2CCCC2)c1)Nc1ccc(Cl)c(Cl)c1 , please. 22

Tell me the measured growth inhibition of O=C(/C=C/c1cccc(C(F)(F)F)c1)NCCCCCN1CCN(C(=O)Nc2ccc(Cl)c(Cl)c2)CC1 , please. -1

Tell me the measured growth inhibition of C=CCc1cc(Cc2cnc(N)nc2N)cc(CCC)c1O , please. 2

Tell me the measured growth inhibition of CCCCCCCCCn1c(NCc2cc(Cl)ccc2O)nc2ccccc21 , please. 92

Tell me the measured growth inhibition of OCC1CCN(Cc2cccc(C#Cc3cc4ncnc(Nc5ccc(OCc6cccc(F)c6)c(Cl)c5)c4s3)n2)CC1 , please. 95

Tell me the measured growth inhibition of COc1ccc(-c2cccc(CNCc3ccc(F)cc3)c2)cc1S(=O)(=O)NCCN1CCCC1 , please. 16
